Assay: Permeability across apical to basolateral side in human Caco2 cells
Type: ADME, cell-based
Settings: Caco-2, read-out: permeability
result_type: Papp A→B (×10⁻⁶ cm/s)

smiles_text	Papp A→B, ×10⁻⁶ cm/s
CC(C)(CNc1noc2ccccc12)c1ccccc1	11.6

A. COc1cccc2[nH]nc(NCC(C)(C)c3ccccc3)c12
B. COc1cccc2c1C(NCC(C)(C)c1ccccc1)=NC2=O
q: For the two items A and B , which reports the higher Papp A→B value? # answer = label of selected item
a: B
(B: 27 ×10⁻⁶ cm/s, A: 9.4 ×10⁻⁶ cm/s)

P. COc1ccc2c(NCC(C)(C)c3ccccc3)noc2c1
Q. COc1cccc2c1c(NCC(C)(C)c1ccccc1)nn2C
q: For the two items P and Q , which reports the higher Papp A→B value? # answer = label of selected item
a: P

====

Target: Potassium voltage-gated channel subfamily A member 5 (Homo sapiens, UniProt P22460)
Sequence (P22460 whole entry): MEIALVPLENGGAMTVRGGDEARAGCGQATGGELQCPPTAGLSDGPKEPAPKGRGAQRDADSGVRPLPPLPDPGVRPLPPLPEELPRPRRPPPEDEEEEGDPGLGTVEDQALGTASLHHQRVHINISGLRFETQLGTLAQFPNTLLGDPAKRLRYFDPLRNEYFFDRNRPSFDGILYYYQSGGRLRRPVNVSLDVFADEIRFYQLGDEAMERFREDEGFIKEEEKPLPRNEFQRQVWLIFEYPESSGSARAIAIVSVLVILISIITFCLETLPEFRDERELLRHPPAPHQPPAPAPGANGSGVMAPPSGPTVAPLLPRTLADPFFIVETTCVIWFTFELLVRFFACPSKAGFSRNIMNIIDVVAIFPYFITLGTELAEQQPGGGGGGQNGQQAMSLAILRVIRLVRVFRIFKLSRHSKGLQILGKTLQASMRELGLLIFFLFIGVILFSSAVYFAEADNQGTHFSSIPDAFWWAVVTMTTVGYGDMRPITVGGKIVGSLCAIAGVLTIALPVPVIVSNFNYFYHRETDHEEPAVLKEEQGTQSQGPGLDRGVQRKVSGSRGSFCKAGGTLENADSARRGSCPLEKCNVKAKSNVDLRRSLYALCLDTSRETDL
Assay: Inhibition of human Kv1.5 expressed in mouse L929 cells assessed as inhibition of current
result_type: IC50 (nM)

Look over these answered cases.
smiles_text	IC50, nM
CCNC(=O)O[C@H]1CC[C@](CNc2nn(C)c3cccc(OC)c23)(c2ccccc2)CC1	88
COc1cccc2oc(=O)nc(NCC(C)(C)c3ccccc3)c12	197
COc1cccc2nc(O)nc(NCC(C)(C)c3ccccc3)c12	23
COc1cccc2ccnc(NCC(C)(C)c3ccccc3)c12	22
COc1cccc2onc(N(C)CC(C)(C)c3ccccc3)c12	187
CCc1cccc2onc(NCC(C)(C)c3ccccc3)c12	219

A. COc1cccc2snc(NCC(C)(C)c3ccccc3)c12
B. COc1cccc2c1C(NCC(C)(C)c1ccccc1)=NC2=O
q: Smaller IC50 value, A vs B ? # answer = label of selected item
a: A
(A: 25 nM, B: 84 nM)

P. COc1cccc2ncnc(NCC(C)(C)c3ccccc3)c12
Q. COc1cccc2c1c(NCC(C)(C)c1ccccc1)nn2C
q: Smaller IC50 value, P vs Q ? # answer = label of selected item
a: P
(P: 118 nM, Q: 198 nM)

====

Target: Potassium voltage-gated channel subfamily A member 5 (Homo sapiens, UniProt P22460)
Assay: Inhibition of human Kv1.5 expressed in mouse L929 cells assessed as inhibition of current at 0.3 uM
Format: cell-based
result_type: inhibition (%)

smiles_text	measure_unit	inhibition
COc1cccc2c1c(NCC(C)(C)c1ccccc1)nn2C(C)C	%	42

P. COc1ccc2onc(NCC(C)(C)c3ccccc3)c2c1
Q. COc1ccc2c(NCC(C)(C)c3ccccc3)noc2c1
q: For the two items P and Q , which reports the higher inhibition value? # answer = label of selected item
a: P
(P: 37%, Q: 21%)

====

Molecular target: UniProt:Q12809
Sequence (Q12809 whole entry): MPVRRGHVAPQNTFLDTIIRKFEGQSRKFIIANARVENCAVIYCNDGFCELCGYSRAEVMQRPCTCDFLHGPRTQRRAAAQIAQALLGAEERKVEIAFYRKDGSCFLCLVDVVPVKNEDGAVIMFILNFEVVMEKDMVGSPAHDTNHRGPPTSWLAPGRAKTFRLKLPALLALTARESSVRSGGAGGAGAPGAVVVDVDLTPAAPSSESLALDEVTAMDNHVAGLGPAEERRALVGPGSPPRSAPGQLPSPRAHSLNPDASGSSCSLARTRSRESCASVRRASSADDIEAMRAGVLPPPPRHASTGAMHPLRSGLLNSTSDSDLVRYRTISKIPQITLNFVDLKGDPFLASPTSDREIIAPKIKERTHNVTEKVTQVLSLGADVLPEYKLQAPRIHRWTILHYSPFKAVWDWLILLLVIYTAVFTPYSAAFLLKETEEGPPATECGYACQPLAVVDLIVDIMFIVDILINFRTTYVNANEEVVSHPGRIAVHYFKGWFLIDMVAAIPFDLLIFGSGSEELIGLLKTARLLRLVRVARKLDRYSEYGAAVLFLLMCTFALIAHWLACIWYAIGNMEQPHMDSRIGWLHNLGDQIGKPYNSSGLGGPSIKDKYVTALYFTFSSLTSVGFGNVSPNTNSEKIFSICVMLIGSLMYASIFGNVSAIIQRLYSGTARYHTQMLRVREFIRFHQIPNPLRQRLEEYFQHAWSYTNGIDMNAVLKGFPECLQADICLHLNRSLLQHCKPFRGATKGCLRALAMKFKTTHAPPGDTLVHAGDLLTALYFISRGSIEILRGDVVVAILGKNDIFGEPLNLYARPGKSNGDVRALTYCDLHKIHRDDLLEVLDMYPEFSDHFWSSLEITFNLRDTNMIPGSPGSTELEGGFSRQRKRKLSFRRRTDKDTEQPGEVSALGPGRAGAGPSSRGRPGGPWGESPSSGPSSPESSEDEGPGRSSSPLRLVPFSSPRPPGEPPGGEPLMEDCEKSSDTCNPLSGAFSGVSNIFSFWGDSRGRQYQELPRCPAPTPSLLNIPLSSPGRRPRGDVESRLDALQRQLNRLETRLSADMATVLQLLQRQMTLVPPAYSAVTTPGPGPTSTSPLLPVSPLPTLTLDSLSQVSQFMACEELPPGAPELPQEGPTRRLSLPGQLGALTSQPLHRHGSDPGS
Experiment: Inhibition of human ERG at 10 uM
result_type: inhibition at 10 µM (%)
Report the value in % with no unit label.

Look over these answered cases.
smiles_text	result_type	measure_unit	number
COc1cccc2nc(O)nc(NCC(C)(C)c3ccccc3)c12	inhibition at 10 µM	%	50
COc1cccc2nc(Cl)nc(NCC(C)(C)c3ccccc3)c12	inhibition at 10 µM	%	90

Pending compound:
// recorded inhibition at 10 µM for COc1cccc2snc(NCC(C)(C)c3ccccc3)c12 : 68
